assay_method_text: soluble on expression in E. coli; label from the status in PepcDB or PDB records
reported_property: soluble on expression in E. coli

Study these solved cases before continuing.
1. MGHHHHHHSHDSKACISIGNQNFEVKADDLEPIMELGRGAYGVVEKMRHVPSGQIMAVKRIRATVNSQEQKRLLMDLDISMRTVDCPFTVTFYGALFREGDVWICMELMDTSLDKFYKQVIDKGQTIPEDILGKIAVSIVKALEHLHSKLSVIHRDVKPSNVLINALGQVKMCDFGISGYLVDSVAKTIDAGCKPYMAPERINPELNQKGYSVKSDIWSLGITMIELAILRFPYDSWGTPFQQLKQVVEEPSPQLPADKFSAEFVDFTSQCLKKNSKERPTYPELMQHPFFTLHESKGTDVASFVKLILGD    not soluble
2. MPGVTVKEIDQHVLTKNMAAFLKKSGKIFVPEQAVYMKTGKFKETAPTDDDWFYTRCASIMRHLYLRSPAGVGAFTKVYSGRKRNGVRPSKHCRSSDGCIRKALQALEAANMVERHPDGGRKLTPQGQRNLDRIANKIVAKQRERSAPVSMIITTLEHHHHHH    soluble
3. MSASFSNNACYMDVMIEIISLRLRLAIASSDRVPLWPFPSRQYMPTRPGWSRWRHPTVVVEPMRNQNFSYHKCNNKIDSSKHISTLSH    not soluble
4. MGSDKIHHHHHHMPRQMRPDIADIRTGADLRQWYWRKDELVAHARTLGLKRSGAKFTILDRIAHFLDTGARDLPEAPAPKPTSDFDWHSAKLTPDTILTDSYKNTQNVRRFFKAQLGPRFAFSIPLMAWLKENSGKTLSDACAVWRDLQAERRRPGWQSDIKGHNQFNQYTRDFLAAHPDLGMDDVRRVWARKIQQPSPDGRHIYEPSDLDL    not soluble
5. MGSDKIHHHHHHMKIDEFNKALDRGEISPLYYFHGDEPHLMERAVKRLMDSAVPPDFRDFNLDVFYGNECKGDEVASVAQTLPMFADRRMVLVKRAGDLSAAALEILASCVADPPPTTCLVFMGEKVDQRKKFFQEMKKKGELVECKRPYENQLGAFIREEAKGLGKRVEPAAAEMLVYLVGNNLGELSTQLEKVALYVGQRETISVEDVRGIVSDTKVESVFDLTNALGERNVVKALRSLATILRDGEAPLMLLAMIARHFRQLWRVRDLMAQKVPQQDISRLAGINPYFIKGVMAQARNFSASELKKVFEGLYATDLALKGGGAKRPTLTLEKLVMDVCGMGSR    not soluble

-- ask Give the reported soluble on expression in E. coli for this sequence. "MSLNTLLMHCRPGFEGEVCAEIAEHAATLEIPGYAKSKPASAHVEFVCQDADGAERLMRRLRFADLIFPRQWARGPGFIELPESQRIEVLLAELASYPVCGSLWLEVLDTNAGKEVSTFCRKFEKPLRAALVKAGRLQEDPALPRLLLTFRSGREVFVGLAEPRNSALWPMGIPRLKFPREAPSRSTLKLEEAWHQFIPRSEWDKRLAPDMLAVDLGAAPGGWTWQLVNREMRVTAVDNGPMAENLMYSGLVDHQKVDGYQYRPRQRVDWMVCDIVEKPARTGALIETWIGEGLCREAVVNLKLPMKQRYAEVRKILQRLRESFDARGLKVAIGCKQLYHDREEVTCHLRRLEREGGSHHHHHH"
-- reply soluble

---

assay_method_text: soluble on expression in E. coli; label from the status in PepcDB or PDB records
reported_property: soluble on expression in E. coli

1) MSLFQITKSKLRFPLSTFTKRYSSFQAAKSVIDKAAIDGELRVFIVSGEVSGDNIGSRLMSSLKKLSPLPIRFNGVGGSLMCKKGLNSLFPMEDLAVMGVWELLPHLYKFRVKLKETIDAAVKFKPHVVVTVDSKGFSFRLLKELRGKQHKTCFIKLVRENHEGHHHHHH    not soluble
2) MGSDKIHHHHHHAVFVAVGIRMITSGDGRTNRYDVEAGNNTYDNAVIENSKISEKNKIQNNQSMLDDIMNSTQYPKQLKDLALKNEEALEFVFDYPAEHVKEHTIDLTEEASMDSVPLFVQWDKRWGYEKYSGNFFAASGCGPTTLSMVVVYLTHNREASPIAVAKYSKEAGYSVDGSGSSWTLISEGCMHYGVKAKAVALDESRMKAELDEGHPIVVNVGPGDFTDTGHFMVITGYDDEGFSINDPNSIEKSGKRWLFKNISSQIRAVWSMYV    not soluble
3) MSLMPLLDKLREQYGVGPVCSELHIAPSTYYHCQQQRHHPDKRSARAQHDDWLKREIQRVYDENHQVYGVRKVWRQLLREGIRVARCTVARLMAVMGLAGVLRGKKVRTTISRKAVAAGDRVNRQFVAERPDQLWVADFTYVSTWQGFVYVAFIIDVFAGYIVGWRVSSSMETTFVLDALEQALWARRPSGTIHHSDKGSQYVSLAYTERLKEAGLLASTGSTGDSYDNAMAESINGLYKAEVIHRKSWKNRAEVELATLTWVDWYNNRRLLGRLGHAPPAEAEKAYYASIGNDDLAAEGHHHHHH    not soluble
4) MTVEERSNTAKVDILGVDFDNTTMLQMVENIKTFFANQSTNNLFIVTANPEIVNYATTHQAYLELINQASYIVADGTGVVKASHRLKQPLAHRIPGIELMDECLKIAHVNHQKVFLLGATNEVVEAAQYALQQRYPNISFAHHHGYIDLEDETVVKRIKLFKPDYIFVGMGFPKQEEWIMTHENQFESTVMMGVGGSLEVFAGAKKRAPYIFRKLNIEWIYRALIDWKRIGRLKSIPIFMYKIAKAKRKIKKAK    not soluble
5) MGSDKIHHHHHHMTATASSSPKLRVDTRGTNELPPHLDENLLTPRFYVTEFKKAAKTELTDAREEFEAMLSEMKADYNCTHFDRKASLDRLQELPQKAKETYESYLVRSVISEFSGFLLFKEISNRLKKEGNRDLGKLFQFLARDEARHAGFLSRALVAEGIEVDLPHLGGKRAATWFPISWVIYSVYLSEKIGYWRYILMDRHLKANPDQAFAPLFDFFEPWCQDENRHGDCFTVMMRCWPGITKGFRGKLLSRFFLWSVFLTHTLTVCERGEFYELLGIDPKEFDEEVIKRTNHTSKNAFPWVFNLDDNKFWDLRNKIIESFRAFVGAKGLTKPVKFVKFATLIFKQFALPMEKTDALRYDKNVNFTGQDILNFWTDK    not soluble

-- ask Give the reported soluble on expression in E. coli for this sequence. "MAHHHHHHMKIVPPNFGYVEERIFRCGAPEPCHYAFLASLKLRTCVLLTESHDEAFVRWLRENNVHTVCPLYDGSRMNGLGDKMGCVGYHTGSMTLSEPVVVDILHVLVDPINYPLLLTCSVGRYRTGIVCGCLRKLQGWSLVSILEEYRRYAQDKGRAENEEFIELFDKDLVNLELKDGRRPTILYPYDV"
-- reply soluble

-- ask Tell me soluble on expression in E. coli reported for "MSLATTTSTDNTGLLDVLAPAYKKDTGVDLKWVAVGTGNALKLGENCDVDVVFVHAPKVELEYVEKGFGIDRTPVMYNDFVIIGNPSFKQKFTGMSVAEAFKLIEKEQVKFVSRGDKSGTHSKEREVWKEALGKIPEKESWYIEAGQGMLATINIAEEQKGLTLTDRGTFIKYESNHKGKPPMVIVLEGDNTLKNFYSIMAVNPKRCEKADYKGAKQFIDWIVSEKMQAEIANFKLLDKQLFTPDAKTREGHHHHHH"
-- reply soluble

---

assay_method_text: soluble on expression in E. coli; label from the status in PepcDB or PDB records
reported_property: soluble on expression in E. coli

1) MHLLLLHGFTSHPVLTLGPLSERLKEAGWEVRQPALPGHGTRPEDLLKVRFQDWLLAAEEAYLELPEPRGVVGLSMGGLLAAHLAARHPTKALVALAPAFALKNPLAPYLHWLIPRFPGPPSIEDPELRKRNPNYPYFPTRAVLELLALMRKTPEVLPRVKARALVVEAGKDRVVKGVDRYFALLGSPRKDHLVFPESGHDLLLDRDREEVARAVRDWLLASDNYLQ    soluble
2) MVMTVRVIAPDKTVWDAPAEEVILPSTTGQLGILSNHAPLLTALETGVMRVRQDREWVAIALMGGFAEVENNEVTILVNGAERGDTIDLEKAKAEFAAAQAALAQAEQGESKQAKIQATQAFRRARARLQAAGGVVEI    soluble
3) MAHHHHHHMLRLCRVSLRVQSHQKKRAQHPNAGTRFGRVYNRGFIRYGFGGFGMSVYTPKKDRRFRVQPLPSLHANSLADDTPLVTTTRTLSPNFRAFALQDGGVFFTHPSHEQVMRVGQNILAEETKATGMTSMDTYVNSRIQSIIAENTVENVALSHWRRRHMWNLVRTHGKLQRHWGVSDATKGARSNIYGRPS    not soluble
4) MGHHHHHHSHMQSYLPNDTVESGIHPVYFCSTHYIEMLLKAELPLVFSAFHMSGFAPSQICLQWITQCFWNYLDWIEICHYIATCVFLGPDYQVYICIAVFKHLQQDILQHTQTQDLQVFLKEEALHGFRVSDYFEYMEILEQNYRTVLLRDMRNIRLQST    not soluble

-- ask Retrieve soluble on expression in E. coli measured for "MGHHHHHHSHMGTVKQLLLFSETEGNPCFLDICGNFLVVGTDLAHFKSFDLSRREAKAHCSCRSLAELVPGVGGIASLRCSSSGSTISILPSKADNSPDSKICFYDVEMDTVTVFDFKTGQIDRRETLSFNEQETNKSHLFVDEGLKNYVPVNHFWDQSEPRLFVCEAVQETPRSQP" and print it.
-- reply soluble

-- ask Tell me its soluble on expression in E. coli given "SMGKEKSKEPRDPDQLYSTLKSILQQVKSHQSAWPFMEPVKRTEAPGYYEVIRFPMDLKTMSERLKNRYYVSKKLFMADLQRVFTNCKEYNPPESEYYKCANILEKFFFSKIKEAGLID" as the entry.
-- reply soluble

-- ask Input "MAISIKGVNTGVIRKSNNFIALALKIKEPRNKESLFFMSVMELRDLLIALESRLHQKHKLDAAAHLQYEQARDKVIKKMAENIPEILVDELKNADINRRVNTLELTDNQGENLTFVLTLHDGSKCELVVNELQIEMLARAIIHAINNAEMRELALRITSLLDFLPLYDVDCQDNGNLEYDTYSQPEWKHNLFDHYLAVLYRFKDESGKEQFSGAVVKTREATPGKEIEAITRRMLDFSPRLKKLAGVPCQVYVRTVAANNAQPLTQDQCLRALHHLRVQSTSKTAPQAK" , output reported soluble on expression in E. coli.
-- reply not soluble

-- ask Look up soluble on expression in E. coli of "MGGVSDERLDLVNERDEVVGQILRTDPALRWERVRVVNAFLRNSQGQLWIPRRSPSKSLFPNALDVSVGGAVQSGETYEEAFRREAREELNVEIDALSWRPLASFSPFQTTLSSFMCVYELRSDATPIFNPNDISGGEWLTPEHLLARIAAGEAAKGDLAELVRRCYREEE" and report it.
-- reply soluble
